- assay_details: Permeability in human Caco2 cells
- Format: ADME, cell-based
- measurement_setup: Caco-2, read-out: permeability
recorded_metric: Papp (×10⁻⁶ cm/s)
Record the value in ×10⁻⁶ cm/s, omitting the unit from your answer.

Note Papp for the compound shown: c1ccc2c(OC[C@H]3CCCN3c3ccnc4ncnn34)cncc2c1
21

###

- assay_details: Thermodynamic solubility of the compound
- Assay type: physicochemical
- measurement_setup: read-out: Therm_solubility
recorded_metric: solubility thermodynamic (µg/mL)
Record the value in µg/mL, omitting the unit from your answer.

Note solubility thermodynamic for the compound shown: c1ccc2c(OC[C@H]3CCCN3c3ccnc4ncnn34)cncc2c1
171
